Reference for the values: IntAct's records for PubMed 17589525

B1: Splicing factor 45 (Homo sapiens), Q96I25 (parent)
chain: MSLYDDLGVETSDSKTEGWSKNFKLLQSQLQVKKAALTQAKSQRTKQSTVLAPVIDLKRGGSSDDRQIVDTPPHVAAGLKDPVPSGFSAGEVLIPLADEYDPMFPNDYEKVVKRQREERQRQRELERQKEIEEREKRRKDRHEASGFARRPDPDSDEDEDYERERRKRSMGGAAIAPPTSLVEKDKELPRDFPYEEDSRPRSQSSKAAIPPPVYEEQDRPRSPTGPSNSFLANMGGTVAHKIMQKYGFREGQGLGKHEQGLSTALSVEKTSKRGGKIIVGDATEKDASKKSDSNPLTEILKCPTKVVLLRNMVGAGEVDEDLEVETKEECEKYGKVGKCVIFEIPGAPDDEAVRIFLEFERVESAIKAVVDLNGRYFGGRVVKACFYNLDKFRVLDLAEQV
partner: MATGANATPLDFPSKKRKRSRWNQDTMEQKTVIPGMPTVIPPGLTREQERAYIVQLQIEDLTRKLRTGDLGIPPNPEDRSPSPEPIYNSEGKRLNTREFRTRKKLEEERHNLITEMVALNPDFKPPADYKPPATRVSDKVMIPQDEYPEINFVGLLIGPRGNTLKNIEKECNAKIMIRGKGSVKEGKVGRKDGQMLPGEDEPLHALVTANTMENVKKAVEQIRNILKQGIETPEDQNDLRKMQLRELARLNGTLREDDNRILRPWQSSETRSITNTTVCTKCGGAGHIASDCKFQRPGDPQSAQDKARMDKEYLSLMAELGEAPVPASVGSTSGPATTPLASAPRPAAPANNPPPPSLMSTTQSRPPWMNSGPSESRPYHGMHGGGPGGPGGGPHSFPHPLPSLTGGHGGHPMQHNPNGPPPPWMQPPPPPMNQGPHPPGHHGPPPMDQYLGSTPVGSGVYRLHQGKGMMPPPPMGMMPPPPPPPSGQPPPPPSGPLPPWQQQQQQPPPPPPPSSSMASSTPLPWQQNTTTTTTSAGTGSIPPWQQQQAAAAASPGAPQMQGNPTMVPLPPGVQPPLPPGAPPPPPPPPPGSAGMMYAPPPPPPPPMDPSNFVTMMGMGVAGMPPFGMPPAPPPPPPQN

variants of: B1; conditions: with sf01_human SF1, Q15637
MEASUREMENT_LABEL: effect of a mutation on the interaction

Y376A | decreasing interaction
R375A | decreasing interaction
D319A | disrupting interaction
D319K | disrupting interaction
R375D | disrupting interaction
F377Y | decreasing interaction

Now examine the next entry.
Annotate the variant `F377A` with its measured effect of a mutation on the interaction. decreasing interaction
